Source listed as ChEMBL document CHEMBL4308847.

- assay_name: Drug uptake in rat brain administered as iv cassette dose
- Type: ADME, organism-based
- condition: in vivo
Each entry below carries its reported Drug uptake.
Numeric answer plus unit only.

Previously resolved entries follow.
O=C(NC1CC(F)(F)C1)c1nsc2cc(Nc3n[nH]c4cccnc34)ccc12 = 107 ng/g
CC(C)(C)Cc1noc2cc(Nc3n[nH]c4nccnc34)ccc12 = 285 ng/g
O=C(NC1CC(F)(F)C1)c1nsc2cc(Nc3n[nH]c4nccnc34)ccc12 = 55.6 ng/g
O=C(c1nsc2cc(Nc3n[nH]c4cccnc34)ccc12)N1CCC(F)(F)CC1 = 35.5 ng/g

What does the data say about its Drug uptake? Entry: c1cnc2c(Nc3ccc4c(C5CCCC5)noc4c3)n[nH]c2n1
145 ng/g

* * *

- assay_target: Metabotropic glutamate receptor 4 (Rattus norvegicus) (UniProt P31423)
- Sequence (P31423 whole entry): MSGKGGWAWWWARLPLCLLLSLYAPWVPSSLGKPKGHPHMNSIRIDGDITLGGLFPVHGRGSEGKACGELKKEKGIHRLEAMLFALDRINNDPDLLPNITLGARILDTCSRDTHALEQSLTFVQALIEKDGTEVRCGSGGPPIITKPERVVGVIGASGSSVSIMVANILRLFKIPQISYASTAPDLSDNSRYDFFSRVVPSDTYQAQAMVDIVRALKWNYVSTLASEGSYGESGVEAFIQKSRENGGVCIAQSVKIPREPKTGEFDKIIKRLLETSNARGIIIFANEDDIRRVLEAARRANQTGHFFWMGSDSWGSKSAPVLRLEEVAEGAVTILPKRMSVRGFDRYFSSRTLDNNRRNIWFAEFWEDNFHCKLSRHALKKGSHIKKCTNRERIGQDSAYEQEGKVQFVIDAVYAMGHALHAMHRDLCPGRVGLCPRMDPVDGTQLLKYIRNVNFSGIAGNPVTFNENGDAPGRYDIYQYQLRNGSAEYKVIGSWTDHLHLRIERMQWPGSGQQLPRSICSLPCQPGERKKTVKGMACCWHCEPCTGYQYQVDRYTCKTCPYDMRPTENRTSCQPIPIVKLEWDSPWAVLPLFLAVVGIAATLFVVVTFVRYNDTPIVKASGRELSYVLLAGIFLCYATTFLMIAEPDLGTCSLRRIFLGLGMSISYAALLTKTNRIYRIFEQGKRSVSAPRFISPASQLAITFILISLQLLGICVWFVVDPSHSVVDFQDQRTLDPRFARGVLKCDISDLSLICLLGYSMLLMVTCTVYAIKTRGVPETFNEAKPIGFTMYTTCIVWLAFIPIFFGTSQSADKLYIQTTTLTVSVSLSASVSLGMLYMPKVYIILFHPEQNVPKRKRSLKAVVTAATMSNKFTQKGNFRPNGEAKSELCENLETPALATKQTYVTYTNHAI
- assay_name: Positive allosteric modulation of rat mGlu4 receptor expressed in HEK cells co-expressing GIRK1/2 assessed as increase in glutamate-induced thallium flux preincubated for 140 secs followed by glutamate addition and measured after 2.5 mins by FluoZin-2-AM dye based fluorescence assay relative to control
- Assay type: cell-based
The compounds listed here are annotated with their %max.
Kindly answer with a numeric value in %, unit omitted.

Example cases with answers are listed next.
Cc1noc2c(F)cc(Nc3n[nH]c4ncccc34)cc12 = 114
Cc1noc2ccc(Nc3n[nH]c4nccnc34)cc12 = 127
CC(C)(C)Cc1nsc2cc(Nc3n[nH]c4nccnc34)cnc12 = 112

Need %max, item CC(=O)N1CCC(c2nsc3cc(Nc4n[nH]c5cccnc45)ccc23)CC1
98.9

What value of %max has been reported for the following compound? c1cnc2c(Nc3ccc4c(C5CCCC5)noc4c3)n[nH]c2n1
102

# lookup: %max of CC(F)(F)c1noc2cc(Nc3n[nH]c4cccnc34)ccc12
83.8

* * *

- assay_name: Fraction unbound in human plasma after 4 hrs by equilibrium dialysis method
- Type: ADME, cell-free
test_readout: fraction unbound at 4 h

Solved cases (3 shown):
c1cnc2c(Nc3ccc4c(C5CC5)nsc4c3)n[nH]c2n1 = 0.012
CC(C)(C)Cc1noc2cc(Nc3n[nH]c4cccnc34)ccc12 = 0.016
CCC(CC)c1noc2cc(Nc3n[nH]c4cccnc34)ccc12 = 0.009

I would be grateful if you could share the reported fraction unbound at 4 h for CC(=O)N1CCC(c2nsc3cc(Nc4n[nH]c5cccnc45)ccc23)CC1 .
0.042

* * *

Recorded pEC50 values for a group of compounds are listed next.
- assay_target: UniProt:P31423
- assay_name: Positive allosteric modulation of rat mGlu4 receptor expressed in HEK cells co-expressing GIRK1/2 assessed as increase in glutamate-induced thallium flux preincubated for 140 secs followed by glutamate addition and measured after 2.5 mins by FluoZin-2-AM dye based fluorescence assay
Schema: pEC50 number; meaning minus log10 of the concentration expressed in molar units.

Would you please look over these solved cases?
CC(C)(C)Cc1noc2cc(Nc3n[nH]c4cccnc34)ccc12 = 6.27
c1cnc2c(Nc3ccc4c(C5CCCC5)noc4c3)n[nH]c2n1 = 6.29
CC(=O)N1CCC(c2nsc3cc(Nc4n[nH]c5cccnc45)ccc23)CC1 = 6.78
O=C(NC1CC(F)(F)C1)c1nsc2cc(Nc3n[nH]c4cccnc34)ccc12 = 7.08
Cc1noc2ccc(Nc3n[nH]c4cc(F)cnc34)cc12 = 6.91
c1cnc2c(Nc3ccc4c(C5CCCC5)noc4c3)n[nH]c2c1 = 6.17
CC(C)(C)Cc1noc2cc(Nc3n[nH]c4nccnc34)ccc12 = 6.30
Cc1noc2c(F)cc(Nc3n[nH]c4cccnc34)cc12 = 7.28
Cc1noc2ccc(Nc3n[nH]c4ncc(F)cc34)cc12 = 6.72
Cc1noc2ccc(Nc3n[nH]c4nccnc34)cc12 = 7.19

Now, please, on to the next compound.
What reported pEC50 corresponds to CC(F)(F)c1noc2cc(Nc3n[nH]c4cccnc34)ccc12 on UniProt:P31423?
5.80

* * *

- assay_name: Fraction unbound in rat plasma after 4 hrs by equilibrium dialysis method
- Type: ADME, cell-free
test_readout: fraction unbound at 4 h

# count of solved cases: 2
c1cnc2c(Nc3ccc4c(C5CCCC5)noc4c3)n[nH]c2n1 = 0.008
CCC(CC)c1noc2cc(Nc3n[nH]c4cccnc34)ccc12 = 0.019

So what does the record say about fraction unbound at 4 h for Cc1noc2ccc(Nc3n[nH]c4cccnc34)cc12 ?
0.058

I would be grateful if you could share the reported fraction unbound at 4 h for CC(C)(C)Cc1nsc2cc(Nc3n[nH]c4cccnc34)cnc12 .
0.016

* * *

- assay_name: Fraction unbound in human plasma after 4 hrs by equilibrium dialysis method
- Format: ADME, cell-free
test_readout: fraction unbound at 4 h
// no unit, no text: just the number

Worked examples, 6 molecules total:
CC(C)(C)Cc1nsc2cc(Nc3n[nH]c4cccnc34)cnc12 = 0.006
O=C(c1nsc2cc(Nc3n[nH]c4cccnc34)ccc12)N1CCC(F)(F)CC1 = 0.021
c1cnc2c(Nc3ccc4c(C5CC5)nsc4c3)n[nH]c2c1 = 0.009
Cc1noc2c(F)cc(Nc3n[nH]c4ncccc34)cc12 = 0.028
O=C(NC1CC(F)(F)C1)c1nsc2cc(Nc3n[nH]c4cccnc34)ccc12 = 0.024
Cc1noc2ccc(Nc3n[nH]c4ncc(F)cc34)cc12 = 0.054

Okay, now this molecule:
What value of measured fraction unbound at 4 h is listed for c1cnc2c(Nc3ccc4c(C5CCC5)noc4c3)n[nH]c2c1 ?
0.026

* * *

- assay_name: Brain to plasma partition coefficient, Kp of the compound in rat administered as iv cassette dose
- Assay type: ADME, organism-based
- condition: brain and plasma, read-out: Kp
test_readout: Kp
Just the number, please, no unit after it.

Here is how some compounds turned out for Kp.
c1cnc2c(Nc3ccc4c(C5CCCC5)noc4c3)n[nH]c2n1 = 1.2
CC(C)(C)Cc1noc2cc(Nc3n[nH]c4nccnc34)ccc12 = 4.7
O=C(c1nsc2cc(Nc3n[nH]c4cccnc34)ccc12)N1CCC(F)(F)CC1 = 0.14

Query: Kp; subject: O=C(NC1CC(F)(F)C1)c1nsc2cc(Nc3n[nH]c4cccnc34)ccc12
0.4

Can you share its Kp? I mean this compound: O=C(NC1CC(F)(F)C1)c1nsc2cc(Nc3n[nH]c4nccnc34)ccc12
0.08

* * *

- assay_name: Intrinsic clearance in rat liver microsomes at 1 uM preincubated for 5 mins followed by NADPH addition measured up to 45 mins by LC-MS/MS analysis
- Type: ADME, Microsome
- condition: read-out: CLH
test_readout: log10 of CLint scaled at 1 µM (log10 of the value in mL/min/kg)
Note: values are log10 of CLint scaled at 1 µM expressed in mL/min/kg.

The examples below pair each entry with its known result.
CC1CN(C(=O)c2nsc3cc(Nc4n[nH]c5cccnc45)ccc23)CC(C)O1 (stereo not drawn) = 2.36
FC1(F)CCN(Cc2nsc3cc(Nc4n[nH]c5cccnc45)cnc23)CC1 = 3.03

# log10 of CLint scaled at 1 µM lookup, item c1cnc2c(Nc3ccc4c(C5CCCC5)noc4c3)n[nH]c2c1
2.60

Given the entry CC(C)(C)Cc1nsc2cc(Nc3n[nH]c4nccnc34)cnc12 , report its measured log10 of CLint scaled at 1 µM.
2.28

Recorded log10 of CLint scaled at 1 µM of c1cnc2c(Nc3ccc4c(C5CCC5)noc4c3)n[nH]c2c1 , please.
3.09

* * *

The entries below come with measured Emax values attached.
- assay_target: AhR (read out as CYP1A2 induction) (Homo sapiens)
- Sequence (P35869 whole entry): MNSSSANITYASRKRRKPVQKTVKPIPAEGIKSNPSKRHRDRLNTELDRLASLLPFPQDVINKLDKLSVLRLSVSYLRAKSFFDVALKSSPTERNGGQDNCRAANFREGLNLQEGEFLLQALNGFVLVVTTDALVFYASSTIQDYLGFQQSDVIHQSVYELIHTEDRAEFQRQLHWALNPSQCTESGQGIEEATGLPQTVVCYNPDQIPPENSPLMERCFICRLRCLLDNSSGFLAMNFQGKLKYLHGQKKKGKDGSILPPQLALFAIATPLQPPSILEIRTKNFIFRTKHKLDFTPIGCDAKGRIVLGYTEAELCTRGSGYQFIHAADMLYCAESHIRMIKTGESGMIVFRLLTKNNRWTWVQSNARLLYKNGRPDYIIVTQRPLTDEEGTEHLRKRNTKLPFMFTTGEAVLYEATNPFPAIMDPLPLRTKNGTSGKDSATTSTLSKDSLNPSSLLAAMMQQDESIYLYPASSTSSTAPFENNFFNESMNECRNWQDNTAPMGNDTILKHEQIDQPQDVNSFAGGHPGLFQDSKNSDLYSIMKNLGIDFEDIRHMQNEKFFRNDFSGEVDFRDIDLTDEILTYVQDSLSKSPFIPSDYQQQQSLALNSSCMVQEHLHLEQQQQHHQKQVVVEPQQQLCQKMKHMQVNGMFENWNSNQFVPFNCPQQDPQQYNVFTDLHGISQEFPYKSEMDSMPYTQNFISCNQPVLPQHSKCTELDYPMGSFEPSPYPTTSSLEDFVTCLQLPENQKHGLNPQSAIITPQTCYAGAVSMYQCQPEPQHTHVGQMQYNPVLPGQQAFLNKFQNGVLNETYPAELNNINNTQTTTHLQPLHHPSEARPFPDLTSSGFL
- assay_name: Activation of AhR (unknown origin) assessed as CYP1A2 induction relative to control
- Format: ADME

Cc1noc2c(F)cc(Nc3n[nH]c4ncccc34)cc12 = > 50%
Cc1noc2ccc(Nc3n[nH]c4nccnc34)cc12 = > 50%
Cc1noc2ccc(Nc3n[nH]c4ncccc34)cc12 = > 50%
Cc1noc2c(F)cc(Nc3n[nH]c4cccnc34)cc12 = > 50%

Please look at the following compound next.
Returns the measured Emax for the input compound. Input: Cc1noc2ccc(Nc3n[nH]c4cc(F)cnc34)cc12
> 50%

* * *

- assay_name: Drug uptake in brain of Sprague-Dawley rat model of haloperidol-induced catalepsy at 10 mg/kg, po
- Assay type: ADME, organism-based
- condition: in vivo, read-out: Drug uptake
test_readout: concentration

CC(C)(C)Cc1noc2cc(Nc3n[nH]c4nccnc34)ccc12 = 958 nM

Read the next record carefully.
GET /values?readout=concentration&item= O=C(NC1CC(F)(F)C1)c1nsc2cc(Nc3n[nH]c4cccnc34)ccc12
252 nM

* * *

- assay_target: Cytochrome P450 2D6 (Homo sapiens)
- Sequence (P10635 whole entry): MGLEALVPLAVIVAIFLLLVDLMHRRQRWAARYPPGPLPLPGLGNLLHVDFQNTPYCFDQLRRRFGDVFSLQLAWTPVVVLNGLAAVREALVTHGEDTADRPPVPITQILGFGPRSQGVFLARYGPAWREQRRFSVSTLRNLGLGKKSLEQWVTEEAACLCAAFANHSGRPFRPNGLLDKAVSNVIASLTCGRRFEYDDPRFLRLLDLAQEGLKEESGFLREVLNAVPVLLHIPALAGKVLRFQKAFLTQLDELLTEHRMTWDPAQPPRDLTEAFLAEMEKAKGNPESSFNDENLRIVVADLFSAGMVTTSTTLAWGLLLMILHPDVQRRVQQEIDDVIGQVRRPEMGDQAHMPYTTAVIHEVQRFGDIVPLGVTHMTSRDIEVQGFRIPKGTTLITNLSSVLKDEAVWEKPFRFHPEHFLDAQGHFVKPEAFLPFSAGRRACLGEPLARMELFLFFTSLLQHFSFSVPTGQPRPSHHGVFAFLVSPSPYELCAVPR
pIC50: −log10 of the molar value.
test_readout: pIC50

// fetch Cytochrome P450 2D6 (Homo sapiens) pIC50 for O=C(NC1CC(F)(F)C1)c1nsc2cc(Nc3n[nH]c4cccnc34)ccc12
< 4.52

* * *

- assay_target: Metabotropic glutamate receptor 4 (Homo sapiens, UniProt Q14833)
- Sequence (Q14833 whole entry): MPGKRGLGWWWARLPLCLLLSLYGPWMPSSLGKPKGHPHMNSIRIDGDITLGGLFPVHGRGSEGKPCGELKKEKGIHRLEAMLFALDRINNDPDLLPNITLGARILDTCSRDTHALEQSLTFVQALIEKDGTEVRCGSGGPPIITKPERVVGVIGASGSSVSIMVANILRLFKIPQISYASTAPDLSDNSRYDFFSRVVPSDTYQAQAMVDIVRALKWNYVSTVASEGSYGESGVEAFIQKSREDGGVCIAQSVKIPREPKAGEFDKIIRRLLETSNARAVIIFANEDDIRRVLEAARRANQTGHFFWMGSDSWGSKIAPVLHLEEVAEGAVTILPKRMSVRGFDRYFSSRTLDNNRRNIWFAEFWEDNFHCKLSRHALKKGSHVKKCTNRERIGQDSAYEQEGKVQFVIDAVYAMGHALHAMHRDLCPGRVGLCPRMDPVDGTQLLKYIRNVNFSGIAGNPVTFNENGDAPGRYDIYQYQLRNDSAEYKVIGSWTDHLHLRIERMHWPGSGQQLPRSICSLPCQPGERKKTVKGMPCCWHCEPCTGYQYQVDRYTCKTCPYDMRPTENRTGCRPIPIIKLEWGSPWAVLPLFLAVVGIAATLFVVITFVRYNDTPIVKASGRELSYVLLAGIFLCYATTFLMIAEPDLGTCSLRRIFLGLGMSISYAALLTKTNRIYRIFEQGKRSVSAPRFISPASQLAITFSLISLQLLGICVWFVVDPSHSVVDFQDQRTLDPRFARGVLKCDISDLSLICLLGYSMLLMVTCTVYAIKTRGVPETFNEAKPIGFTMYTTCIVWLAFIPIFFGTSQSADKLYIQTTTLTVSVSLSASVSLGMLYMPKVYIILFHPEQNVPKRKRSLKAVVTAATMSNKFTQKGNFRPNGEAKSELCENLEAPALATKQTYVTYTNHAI
- assay_name: Positive allosteric modulation of human mGlu4 receptor expressed in CHO cells co-expressing Gqi5 assessed as increase in glutamate-induced calcium mobilization preincubated for 142 secs followed by EC20 glutamate addition and measured after 147 secs by Fluo-4-AM dye based fluorescence assay relative to control
- Format: functional, cell-based
A collection of compounds and their measured %max
Please report the result as a number followed by the unit.

# example entries with known answers
CCc1noc2cc(Nc3n[nH]c4cccnc34)ccc12 = 72%
O=C(c1nsc2cc(Nc3n[nH]c4cccnc34)ccc12)N1CCC(F)(F)CC1 = 71%

Next:
Form field: reported %max of Cc1noc2c(F)cc(Nc3n[nH]c4nccnc34)cc12
70%
